- study target: DOR (delta opioid receptor), DOR1-CHO (Mus musculus)
- Construct: expressed in transfected cells; host or cells: CHO
- Sequence (P32300 whole entry): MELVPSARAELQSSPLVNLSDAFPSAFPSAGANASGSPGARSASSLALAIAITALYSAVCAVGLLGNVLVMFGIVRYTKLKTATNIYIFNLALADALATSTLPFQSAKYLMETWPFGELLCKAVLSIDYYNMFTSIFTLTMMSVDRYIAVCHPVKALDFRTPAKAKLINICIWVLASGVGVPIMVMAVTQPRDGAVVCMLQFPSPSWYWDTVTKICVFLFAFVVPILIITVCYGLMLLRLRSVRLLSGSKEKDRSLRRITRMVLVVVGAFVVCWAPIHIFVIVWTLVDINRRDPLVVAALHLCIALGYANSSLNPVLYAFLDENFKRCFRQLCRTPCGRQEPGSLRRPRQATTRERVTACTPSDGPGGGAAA
- assay procedure: Competition binding in DOR-CHO, 125I-SMGP1 radioligand
Listed next: entries and their corresponding pKi.
Notebook: values listed as pKi are -log10 of the concentration (mol/L).

[[record]]
molecule = "C=CCN1CCC23c4c5ccc(O)c4OC2C(NC(=O)c2ccc(I)cc2)CCC3(O)C1C5 (centres unmarked)"
study_target = "DOR (delta opioid receptor), DOR1-CHO (Mus musculus)"
parameter = "pKi"
measured_result = 8.47


**Query** API: value(readout= pKi, system= DOR (delta opioid receptor), DOR1-CHO (Mus musculus), query= C=CCN1CCC23c4c5ccc(O)c4OC2C(NC(=O)c2ccccc2I)CCC3(O)C1C5 (centres unmarked) )
**Result** 7.64

**Query** API: value(readout= pKi, system= DOR (delta opioid receptor), DOR1-CHO (Mus musculus), query= C=CCN1CC[C@]23c4c5ccc(O)c4O[C@H]2C(NC(=O)c2ccc4ccccc4n2)CC[C@@]3(O)[C@H]1C5 (some centres unmarked) )
**Result** 6.82

**Query** API: value(readout= pKi, system= DOR (delta opioid receptor), DOR1-CHO (Mus musculus), query= O=C(NC1CCC2(O)C3Cc4ccc(O)c5c4C2(CCN3CC2CC2)C1O5)c1cccc(I)c1 (centres unmarked) )
**Result** 9.62

**Query** API: value(readout= pKi, system= DOR (delta opioid receptor), DOR1-CHO (Mus musculus), query= C=CCN1CCC23c4c5ccc(O)c4OC2C(NC(=O)c2cccc(Br)c2)CCC3(O)C1C5 (centres unmarked) )
**Result** 7.63

====

- study target: DOR (delta opioid receptor), DOR1-CHO (Mus musculus)
- Construct: expressed in transfected cells; host or cells: CHO
- assay procedure: Competition binding in DOR-CHO, 125I-SMGP1 radioligand
- test settings: DOR-CHO, 125I-SMGP1, 25° C., 90 minutes; read-out: Ki (nM) DOR
Listed next: entries and their corresponding log10(Ki).
Please note: log10 values; quantity Ki; unit nM.

Recorded log10(Ki), per entry:
[[record]]
mol = "C=CCN1CC[C@]23c4c5ccc(O)c4O[C@H]2[C@H](NC(=O)c2cccc([N+](=O)[O-])c2)CC[C@@]3(O)[C@H]1C5"
measured_result = 1.26

[[record]]
mol = "C=CCN1CC[C@]23c4c5ccc(O)c4O[C@H]2[C@H](NC(=O)c2cccc(C)c2)CC[C@@]3(O)[C@H]1C5"
measured_result = 0.92

[[record]]
mol = "C=CCN1CC[C@]23c4c5ccc(O)c4O[C@H]2[C@H](NC(=O)c2cccc(OC)c2)CC[C@@]3(O)[C@H]1C5"
measured_result = 1.24

[[record]]
mol = "C=CCN1CC[C@]23c4c5ccc(O)c4O[C@H]2[C@H](NC(=O)c2ccccc2)CC[C@@]3(O)[C@H]1C5"
measured_result = 1.78

[[record]]
mol = "C=CCN1CC[C@]23c4c5ccc(O)c4O[C@H]2[C@H](NC(=O)c2ccc(OC(F)(F)F)cc2)CC[C@@]3(O)[C@H]1C5"
measured_result = 1.25

[[record]]
mol = "C=CCN1CC[C@]23c4c5ccc(O)c4O[C@H]2[C@H](NC(=O)c2cccc(N)c2)CC[C@@]3(O)[C@H]1C5"
measured_result = 1.56

[[record]]
mol = "C=CCN1CC[C@]23c4c5ccc(O)c4O[C@H]2[C@H](NC(=O)c2cccc(O)c2)CC[C@@]3(O)[C@H]1C5"
measured_result = 1.05

[[record]]
mol = "C=CCN1CC[C@]23c4c5ccc(O)c4O[C@H]2[C@@H](NC(=O)c2cccc(I)c2)CC[C@@]3(O)[C@H]1C5"
measured_result = 0.88


**Query** API: value(readout= log10(Ki), system= DOR (delta opioid receptor), DOR1-CHO (Mus musculus), query= `C=CCN1CC[C@]23c4c5ccc(O)c4O[C@H]2[C@H](NC(=O)c2cccc(C(F)(F)F)c2)CC[C@@]3(O)[C@H]1C5` )
**Result** 0.47

**Query** API: value(readout= log10(Ki), system= DOR (delta opioid receptor), DOR1-CHO (Mus musculus), query= `C=CCN1CC[C@]23c4c5ccc(O)c4O[C@H]2[C@H](NC(=O)c2cccc(N(C)C)c2)CC[C@@]3(O)[C@H]1C5` )
**Result** 1.71

**Query** API: value(readout= log10(Ki), system= DOR (delta opioid receptor), DOR1-CHO (Mus musculus), query= `C=CCN1CC[C@]23c4c5ccc(O)c4O[C@H]2[C@H](NC(=O)c2cccc(I)c2)CC[C@@]3(O)[C@H]1C5` )
**Result** 0.41

The measurements presented in this section are drawn from patent US9725457B2.
